// Emax lookup, one value per entry
# subject of test: human mAChR M4 (Homo sapiens)
# test details: mAChR M4 cell-based functional assay (calcium flux), human M4
# measurement conditions: Table 10; % ACh maximum at 30 μM
Where a name gives a salt, the structure may show the parent alone.
Quick reminder: number only, in %, skip the unit.

Past entries and their recorded results:
compound	Emax (%)
Cc1nc2sc3c(N4CC(c5ccncc5)C4)ncnc3c2c(C)c1Cl [Compound 262, dihydrochloride]	83.8
CNC(=O)c1ccc(CNc2ncnc3c2sc2nnc(C)c(C)c23)cc1 [Compound 145]	82.1
Cc1nnc2sc3c(NCc4ccc(C(=O)NC5CCCC5)cc4)ncnc3c2c1C [Compound 153]	87.4

Ask: // lookup Emax for COc1cc(CNc2ncnc3c2sc2ncc(Cl)c(C)c23)cc(OC)c1 [Compound 230]
Result: 37.3

Ask: // lookup Emax for Cc1nc2sc3c(N4CC(F)(F)C4)ncnc3c2c(C)c1Cl [Compound 261, hydrochloride]
Result: 76.2

###

# subject of test: human mAChR M4 (Homo sapiens, UniProt P08173)
# Sequence (P08173 whole entry): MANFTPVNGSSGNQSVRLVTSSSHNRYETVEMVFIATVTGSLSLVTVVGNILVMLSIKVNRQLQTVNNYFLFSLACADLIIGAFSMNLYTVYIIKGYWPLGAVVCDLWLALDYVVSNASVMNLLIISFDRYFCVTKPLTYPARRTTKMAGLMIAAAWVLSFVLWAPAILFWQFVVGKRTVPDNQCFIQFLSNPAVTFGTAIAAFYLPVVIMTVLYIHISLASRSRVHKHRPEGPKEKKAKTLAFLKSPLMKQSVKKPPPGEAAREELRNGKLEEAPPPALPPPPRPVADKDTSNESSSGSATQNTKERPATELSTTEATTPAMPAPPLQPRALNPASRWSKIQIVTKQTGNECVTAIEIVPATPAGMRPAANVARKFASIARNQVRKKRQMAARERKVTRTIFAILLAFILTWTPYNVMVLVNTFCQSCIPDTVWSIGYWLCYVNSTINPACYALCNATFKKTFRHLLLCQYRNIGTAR
# test details: mAChR M4 cell-based functional assay (calcium flux), human M4
# measurement conditions: Table 10; % ACh maximum at 30 μM
Counter-ions that a name gives are not always drawn.
In plain terms, low Emax, meaning strictly below 60%, gives fulfilled, and everything else gives not fulfilled.

compound	assigned class
CCC(C)(O)c1ccc(CNc2ncnc3c2sc2nnc(C)c(C)c23)c(F)c1 (centres unmarked)	not fulfilled
Cc1cc(C)c2c(n1)sc1c(NCc3ccc(S(C)(=O)=O)cc3)ncnc12	fulfilled
Cc1nnc2sc3c(NCc4ccc(-c5ccccn5)cc4)ncnc3c2c1C [Compound 109, hydrochloride]	not fulfilled
Cc1c(Cl)cnc2sc3c(NC4CN(c5ncc(F)cn5)C4)ncnc3c12	not fulfilled

Ask: A record lists `Cc1nc2sc3c(NCc4ccc(C(C)(C)O)cc4F)ncnc3c2c(C)c1Cl` . Is its Emax below 60%?
Result: fulfilled

Ask: A record lists COc1ccc(CNc2ncnc3c2oc2nc(C)c(Cl)c(C)c23)cc1F [Compound 253, hydrochloride] . Is its Emax below 60%?
Result: fulfilled

Ask: A record lists `Cc1nnc2sc3c(NCc4ccc(C(=O)N5CC[C@H](F)C5)cc4)ncnc3c2c1C` . Is its Emax below 60%?
Result: not fulfilled

Ask: A record lists `COc1ccc(CNc2ncnc3c2oc2nnc(C)c(C)c23)cc1` . Is its Emax below 60%?
Result: not fulfilled

###

# subject of test: human mAChR M4 (Homo sapiens, UniProt P08173)
# test details: mAChR M4 cell-based functional assay (calcium flux), human M4
# measurement conditions: Human M4 EC50 (nM), Table 11; calcium flux, PAM activity with EC20 acetylcholine
Counter-ions that a name gives are not always drawn.
Our labelling divides records by EC50 into ranges: group 1: < 300 nM; group 2: ≥ 300 nM and < 1000 nM; group 3: ≥ 1000 nM

Answered cases to consult:
compound	subject of test	assigned class
Cc1nnc2sc3c(NCc4ccc(-n5cccn5)cc4)ncnc3c2c1C	human mAChR M4 (Homo sapiens, UniProt P08173)	group 2
Cc1nnc2sc3c(NCc4ccc(-c5nccs5)cc4)ncnc3c2c1C	human mAChR M4 (Homo sapiens, UniProt P08173)	group 3

Ask: Record Cc1nnc2sc3c(N4CC[C@H](Oc5cnccn5)C4)ncnc3c2c1C [Compound 361, dihydrochloride] — which class?
Result: group 3

Ask: Record `Cc1nnc2sc3c(N4CC[C@H](Oc5ccnc(Cl)c5)C4)ncnc3c2c1C` — which class?
Result: group 1

Ask: Record `Cc1nnc2sc3c(NCc4ccc(C(=O)NC5CCCC5)c(Cl)c4)ncnc3c2c1C` — which class?
Result: group 2

Ask: Record Cc1nnc2sc3c(N4CCC(Oc5ccncc5)(C(F)(F)F)C4)ncnc3c2c1C (centres unmarked) [Compound 366, dihydrochloride] — which class?
Result: group 3

Ask: Record `Cc1nnc2sc3c(NCc4ccc(C(=O)NC(C)C)c(Cl)c4)ncnc3c2c1C` — which class?
Result: group 1

###

# test details: in vivo
# measurement conditions: cynomolgus monkey, brain
readout label: Kp
# answer = number (no unit)

Ask: // lookup Kp for Cc1nnc2sc3c(NCc4ccc(C(C)(C)O)cc4)ncnc3c2c1C [Compound 76]
Result: 0.37

###

// Emax lookup, one value per entry
# subject of test: UniProt:P08173
# test details: mAChR M4 cell-based functional assay (calcium flux), human M4
# measurement conditions: Human M4; % ACh maximum at 30 μM
Quick reminder: number only, in %, skip the unit.

compound	data value
Cc1nnc2sc3c(NC4CN(c5ncc(C(F)(F)F)cn5)C4)ncnc3c2c1C	74

Ask: // lookup Emax for `Cc1nnc2sc3c(N(C)C)ncnc3c2c1C`
Result: 62

Ask: // lookup Emax for `Cc1nnc2oc3c(NC4CC5(COC5)C4)ncnc3c2c1C`
Result: 37.2

Ask: // lookup Emax for `Cc1nnc2sc3c(N4CC(Oc5ccccc5)C4)ncnc3c2c1C`
Result: 54

Ask: // lookup Emax for `COCCN(C)c1ncnc2c1sc1nnc(C)c(C)c12`
Result: 40

Ask: // lookup Emax for `Cc1cnc2sc3c(N4CCCC4)ncnc3c2c1`
Result: 40

Ask: // lookup Emax for Cc1nnc2sc3c(N4CCC(N(C)C)C4)ncnc3c2c1C (stereo not shown)
Result: 40

Ask: // lookup Emax for Cc1nnc2sc3c(NC4CCN(c5ccccc5)C4)ncnc3c2c1C (stereo not shown)
Result: 27

Ask: // lookup Emax for `Cc1nnc2oc3c(NCc4cccc(C5(O)CCC5)c4)ncnc3c2c1C`
Result: 61.1

Ask: // lookup Emax for `Cc1nnc2sc3c(N4CC(Oc5ccccc5F)C4)ncnc3c2c1C`
Result: 60

###

# test details: in vivo
# measurement conditions: cynomolgus monkey, plasma
readout label: Vd (L/kg)
Quick reminder: number only, in L/kg, skip the unit.

Ask: // lookup Vd for Cc1nnc2sc3c(NCc4ccc(C(C)(C)O)cc4)ncnc3c2c1C [Compound 76]
Result: 0.9

###

// EC50 lookup, one value per entry
# subject of test: human mAChR M4 (Homo sapiens)
# test details: mAChR M4 cell-based functional assay (calcium flux), human M4
# measurement conditions: Human M4 EC50 (nM), Table 11; calcium flux, PAM activity with EC20 acetylcholine
Structures can show the parent of a compound that is named as a salt.
Quick reminder: number only, in nM, skip the unit.

compound	unit descriptor	data value
Cc1nnc2sc3c(NC4CN(c5ncc(Cl)cc5Cl)C4)ncnc3c2c1C [Compound 314]	nM	1830

Ask: // lookup EC50 for [2H]C([2H])([2H])OC(C)(C)c1ccc(CNc2ncnc3c2sc2nnc(C)c(C)c23)cc1 [Compound 370]
Result: 326

Ask: // lookup EC50 for Cc1nnc2sc3c(N4CC[C@H](Oc5ccc(C(F)(F)F)nc5)C4)ncnc3c2c1C [Compound 362, dihydrochloride]
Result: 519

Ask: // lookup EC50 for Cc1nnc2sc3c(N4CC[C@H](Oc5cccnc5)C4)ncnc3c2c1C [Compound 332]
Result: 129

Ask: // lookup EC50 for Cc1nnc2sc3c(NCc4ccc(C(=O)N[C@H](C)C(F)(F)F)c(Cl)c4)ncnc3c2c1C [Compound 320]
Result: 532

Ask: // lookup EC50 for Cc1nnc2sc3c(N4CCC(COc5ccnc(Cl)c5)C4)ncnc3c2c1C (centres unmarked) [Compound 347, dihydrochloride]
Result: 362

Ask: // lookup EC50 for Cc1nnc2sc3c(N4CC(Oc5cnccn5)C4)ncnc3c2c1C [Compound 350, dihydrochloride]
Result: 404

###

// log10 EC50 lookup, one value per entry
# subject of test: human mAChR M4 (Homo sapiens, UniProt P08173)
# test details: mAChR M4 cell-based functional assay (calcium flux), human M4
# measurement conditions: Human M4 EC50 (nM), Table 10; calcium flux, PAM activity with EC20 acetylcholine
Structures can show the parent of a compound that is named as a salt.
Please note: log10 values; quantity EC50; unit nM.

Past entries and their recorded results:
molecule	data value
Cc1cc(C)c2c(n1)sc1c(NCc3ccc(OC(F)F)nc3)ncnc12	3.60
Cc1nc2oc3c(NCc4ccc(S(C)(=O)=O)cc4)ncnc3c2c(C)c1Cl [Compound 248, hydrochloride]	3.10
Cc1nnc2sc3c(NCc4ccc(F)c(C(=O)NCC(C)C)c4)ncnc3c2c1C	3.08

Ask: // lookup log10 EC50 for `Cc1c(Cl)cnc2sc3c(NC4CN(c5ncc(F)cn5)C4)ncnc3c12`
Result: 2.92

Ask: // lookup log10 EC50 for Cc1nnc2sc3c(N4CC(NC(=O)c5ccncc5)C4)ncnc3c2c1C [Compound 97, hydrochloride]
Result: 3.05

Ask: // lookup log10 EC50 for `Cc1c(Cl)cnc2sc3c(N4CCC4)ncnc3c12`
Result: 2.94

Ask: // lookup log10 EC50 for `Cc1nnc2sc3c(NCc4ccc(C(=O)N5CC[C@@H](F)C5)cc4)ncnc3c2c1C`
Result: 2.65

Ask: // lookup log10 EC50 for Cc1nc2sc3c(N4CCC(F)(F)C4)ncnc3c2c(C)c1Cl [Compound 255, hydrochloride]
Result: 3.37

Ask: // lookup log10 EC50 for `COc1c(F)cc(CNc2ncnc3c2sc2nnc(C)c(C)c23)cc1F`
Result: 2.59

Ask: // lookup log10 EC50 for `Cc1nnc2sc3c(NC4CN(c5cnc(C6CC6)cn5)C4)ncnc3c2c1C`
Result: 1.78

Ask: // lookup log10 EC50 for Cc1nc2sc3c(NC4CCC4)ncnc3c2c(C)c1Cl [Compound 266, hydrochloride]
Result: 3.22

Ask: // lookup log10 EC50 for `Cc1nnc2sc3c(NCc4ccc(C(=O)N5CC[C@H](F)C5)cc4)ncnc3c2c1C`
Result: 2.72

Ask: // lookup log10 EC50 for `Cc1nnc2sc3c(NCc4ccc(C(=O)N(C)C5CC5)cc4)ncnc3c2c1C`
Result: 2.49

Ask: // lookup log10 EC50 for `Cc1nc(C2CC2)ccc1N1CC(Nc2ncnc3c2sc2nnc(C)c(C)c23)C1`
Result: 2.46

Ask: // lookup log10 EC50 for `CC(=O)NC1CN(c2ncnc3c2sc2nnc(C)c(C)c23)C1`
Result: 2.92

Ask: // lookup log10 EC50 for `Cc1nnc2sc3c(NCc4ccc(S(C)(=O)=O)cc4)ncnc3c2c1C`
Result: 2.28

Ask: // lookup log10 EC50 for `Cc1nnc2sc3c(NCc4ccc(OC(F)F)nc4)ncnc3c2c1C`
Result: 2.44

Ask: // lookup log10 EC50 for `Cc1c(Cl)nnc2sc3c(NCc4ccc(OC(F)F)nc4)ncnc3c12`
Result: 2.90
